Tested on: ECU
Experiment: qHTS profiling for inhibitors of Plasmodium falciparum proliferation (AID 504749); further: nearly all actives have a fitted effect of over 60% in size
Conditions: P. falciparum in erythrocytes, SYBR Green DNA, 72 h; series mostly up to 28.7 µM
Results filed as inconclusive are left out. Active and inactive are the calls of the source. The call rests on the fitted dose curve; in most records, active means well fitted inhibition curve with a large enough effect; inconclusive means small, poorly fitted or top-dose-only effect; inactive means flat fitted curve, though single readings scatter.
Just give me one of these, please: Y = active, N = inactive

{"COMPOUND": "CN1C(=O)CCC1c1cccnc1 (configuration not stated)", "LABEL_VALUE": "N"}

Fill in: this test's call for Oc1ccc(/C=C\c2cc(O)cc(O)c2)cc1 is ___
N

Same again, this time with N[C@H](Cc1ccc(O)c(O)c1)C(=O)O
N

Same again, this time with COc1ccc(CCNC[C@@H](O)c2ccc(O)cc2)cc1OC
N

Same again, this time with CC(C)(C)[C@]1(O)CCN2CC3c4ccccc4CCc4cccc(c43)[C@@H]2C1 (some centres not stated)
Y

Same again, this time with CN=C(N)NCCCC(N)C(=O)O (configuration not stated)
N

Same again, this time with C[C@@]12C(=O)OC(=O)[C@]1(C)[C@H]1CC[C@@H]2O1
Y
